All values here come from ChEMBL document CHEMBL4219174.

assay: Selectivity ratio of IC50 for human NCI-H1975 cells to IC50 for human HCC827 cells; type: functional
compounds and their reported Ratio IC50

# compound, censoring_operator, Ratio IC50
measured = [
    ("CN(C)C1CCN(c2ccc(Nc3ncc4nc(Sc5ccccc5)n(C5CCOCC5)c4n3)cc2)CC1", "=", 170),
    ("CN(C)CCOc1ccc(Nc2ncc3nc([S+]([O-])c4ccccc4)n(C4CCOCC4)c3n2)cc1 (centres undefined)", ">", 198),
    ("CN1CCN(c2ccc(Nc3ncc4nc(Sc5ccccc5)n(C5CCCC5)c4n3)cc2)CC1", "=", 109),
    ("CN(C)CCOc1ccc(Nc2ncc3nc(Sc4cccc(F)c4)n(C4CCOCC4)c3n2)cc1", "=", 54),
    ("CN(C)CCOc1ccc(Nc2ncc3nc(Sc4ccccc4)n(C4CCOCC4)c3n2)cc1", "=", 217),
    ("CN1CCN(c2ccc(Nc3ncc4nc(Sc5ccccc5)n([C@H]5CC[C@H](O)CC5)c4n3)cc2)CC1", "=", 31),
    ("CN1CCN(c2ccc(Nc3ncc4nc(Sc5ccccc5)n(C5CCOCC5)c4n3)cc2)CC1", "=", 53),
    ("CN(C)CCOc1ccc(Nc2ncc3nc(Sc4ccc(F)cc4)n(C4CCOCC4)c3n2)cc1", "=", 131),
    ("CN1CCN(c2ccc(Nc3ncc4nc([S+]([O-])c5ccccc5)n(C5CCCC5)c4n3)cc2)CC1 (centres undefined)", "=", 79),
]
